- Tested on: Escherichia coli
- EXPERIMENT_SUMMARY: Induction of DNA photocleavage activity in Escherichia coli pBR322 plasmid assessed as supercoiled DNA form at 10 uM by gel electrophoresis
ASSAY_METRIC: Activity (%)

NCCCCN(CCCN)C(=O)CCCCNC(=O)c1ccc(-c2c3nc(c(-c4ccc(C(=O)NCCCCC(=O)N(CCCN)CCCCN)cc4)c4ccc([nH]4)c(-c4ccc(C(=O)NCCCCC(=O)N(CCCN)CCCCN)cc4)c4nc(c(-c5ccc(C(=O)NCCCCC(=O)N(CCCN)CCCCN)cc5)c5ccc2[nH]5)C=C4)C=C3)cc1 ... 84
C=CC1=C(C)c2cc3[nH]c(cc4nc(cc5[nH]c(cc1n2)c(C)c5CCC(=O)NCCCCC(=O)N(CCCN)CCCCNCCCN)C(CCC(=O)NCCCCC(=O)N(CCCN)CCCCNCCCN)=C4C)c(C)c3C=C ... 81
NCCCNCCCCN(CCCN)C(=O)CCCCNC(=O)c1ccc(-c2c3nc(c(-c4ccc(C(=O)NCCCCC(=O)N(CCCN)CCCCNCCCN)cc4)c4ccc([nH]4)c(-c4ccc(C(=O)NCCCCC(=O)N(CCCN)CCCCNCCCN)cc4)c4nc(c(-c5ccc(C(=O)NCCCCC(=O)N(CCCN)CCCCNCCCN)cc5)c5ccc2[nH]5)C=C4)C=C3)cc1 ... 85
Cc1cc(C)c(-c2c3nc(c(-c4ccc(C(=O)NCCCCC(=O)N(CCCN)CCCCNCCCN)cc4)c4ccc([nH]4)c(-c4c(C)cc(C)cc4C)c4nc(c(-c5ccc(C(=O)NCCCCC(=O)N(CCCN)CCCCNCCCN)cc5)c5ccc2[nH]5)C=C4)C=C3)c(C)c1 ... 70
C=CC1=C(C)c2cc3[nH]c(cc4nc(cc5[nH]c(cc1n2)c(C)c5CCC(=O)NCCCCC(=O)N(CCCN)CCCCN)C(CCC(=O)NCCCCC(=O)N(CCCN)CCCCN)=C4C)c(C)c3C=C ... 78
Cc1cc(C)c(-c2c3nc(c(-c4ccc(C(=O)NCCCCC(=O)N(CCCN)CCCCN)cc4)c4ccc([nH]4)c(-c4c(C)cc(C)cc4C)c4nc(c(-c5ccc(C(=O)NCCCCC(=O)N(CCCN)CCCCN)cc5)c5ccc2[nH]5)C=C4)C=C3)c(C)c1 ... 73
